Field: melting point. Provide a value for each of the compounds that follow.

What value of measured melting point is listed for "O=C(O)c1ccc2c(c1)C(=O)N(c1ccc(C3(c4ccc(N5C(=O)c6ccc(C(=O)O)cc6C5=O)cc4)c4ccccc4-c4ccccc43)cc1)C2=O" ?
328 to 331 °C

What value of measured melting point is listed for "c1cncc(-c2ccc(N3CCCN(c4ccc(-c5cccnc5)cn4)CC3)nc2)c1" ?
210 to 211 °C

What value of measured melting point is listed for "CCOC(=O)c1cn(CC)c2nc(Cl)ncc2c1=O" ?
156 °C

What value of measured melting point is listed for "CCOC(=O)c1cc(-n2c(=O)c3c(n(C)c2=O)CSC3)ccc1Cl" ?
203 to 206 °C

What value of measured melting point is listed for "CCOC(=O)Cc1sc(NC(=O)Nc2ccccc2)nc1-c1ccc(Cl)cc1" ?
192 to 193 °C

What value of measured melting point is listed for "COc1cc2c(O)c3c4c(ccnc4c2cc1OC)CCC3" ?
218 °C

What value of measured melting point is listed for CC1CCOC(CBr)(c2ccc(Oc3ccccc3)cc2)O1 (stereo not given) ?
96 to 106 °C

What value of measured melting point is listed for "O=C(Oc1ccccc1)c1ccc(O)cc1O" ?
135 to 137 °C

What value of measured melting point is listed for CC(C)(CF)C(=O)C(Br)Oc1ccc(Cl)cc1 (stereo not given) ?
73 to 75 °C

What value of measured melting point is listed for "CC(C)(C)NC(=O)[C@@H]1C[C@H](Br)CN1C(=O)OC(C)(C)C" ?
159 to 160 °C

What value of measured melting point is listed for CC12CC(N3CCC4(CC3)OCCO4)C(O)CC1CCC1C2CCC2(C)C(O)C(N3CCCCC3)CC12 (stereo not given) ?
216 to 218 °C

What value of measured melting point is listed for "CC(=O)O[C@H](CC(=O)c1ccccc1)C(=O)O" ?
118 to 121 °C

What value of measured melting point is listed for "COc1cccc(SSc2cccc(OC)c2S(=O)(=O)NC(C)(C)C)c1S(=O)(=O)NC(C)(C)C" ?
275 °C

What value of measured melting point is listed for "CC(C)CNC(=O)[C@H](C)C[C@H](O)[C@H](CC1CCCCC1)NC(=O)[C@H](Cc1cscn1)NC(=O)OC(C)(C)C" ?
178 to 180 °C

What value of measured melting point is listed for "CCCCCCCCC/C=C1\SC(=O)N(CC(=O)OC)C1=O" ?
30 °C

What value of measured melting point is listed for "CCCc1ccccc1OCCCOc1ccc2c(=O)cc(C(=O)OCC)oc2c1" ?
73 to 75 °C

What value of measured melting point is listed for "CC(=O)NCc1cc(C(C)=O)ccc1Cl" ?
93.1 to 93.7 °C

What value of measured melting point is listed for CC(C)Cc1ccc(C(C)C(=O)OC2OC(=O)c3ccccc32)cc1 (stereo not given) ?
62 to 65 °C

What value of measured melting point is listed for "CC(C)(CO)NS(=O)(=O)c1ccc(Cl)s1" ?
112 °C

What value of measured melting point is listed for COC(=O)c1ccc(C2(c3ccc4c(c3)C3(C)C5(C)CCC(C5)C3(C)O4)OCCO2)cc1 (stereo not given) ?
136 to 137 °C
